# Measured On: Inadl_10, Q8NI35
# Sequence (Q8NI35 1673-1763): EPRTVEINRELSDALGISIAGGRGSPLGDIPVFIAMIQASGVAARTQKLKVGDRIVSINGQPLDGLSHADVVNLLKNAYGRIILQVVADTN
# Experimental Protocol: holdup assay
# Design: key: below the threshold = too weak to quantify, mostly under pKd 3.1 to 4
# Condition Context: plain residues with an end cap or a label only (N-terminal biotin on a linker: ado-ado)
Assay Readout: pKd

As a guide, the following entries are already answered.
• NLSIEKETKL [ASNSD1, Q9NWL6] = below the threshold
• RKPKPSSSCC [RAB9A, P51151] = below the threshold
• TLPRKRMSSI [GPRC6A, Q5T6X5] = below the threshold
• VKPQVSESKL [ACOT8, O14734] = below the threshold
• IPLDGETEEL [MYOZ1, Q9NP98] = below the threshold

Which pKd value is on record for SSALYGESDL [ACTN2, P35609] ?
below the threshold

Can you handle QMNQTLPVQV [EPHB3, P54753] next?
below the threshold

Can you handle RRLPGKETMA [GRIK2, Q13002] next?
below the threshold
